measurement target: T1, SPRED2 1-124 WH1 (domain begin residue: 1, domain end residue: 124), Q7Z698
T1 chain: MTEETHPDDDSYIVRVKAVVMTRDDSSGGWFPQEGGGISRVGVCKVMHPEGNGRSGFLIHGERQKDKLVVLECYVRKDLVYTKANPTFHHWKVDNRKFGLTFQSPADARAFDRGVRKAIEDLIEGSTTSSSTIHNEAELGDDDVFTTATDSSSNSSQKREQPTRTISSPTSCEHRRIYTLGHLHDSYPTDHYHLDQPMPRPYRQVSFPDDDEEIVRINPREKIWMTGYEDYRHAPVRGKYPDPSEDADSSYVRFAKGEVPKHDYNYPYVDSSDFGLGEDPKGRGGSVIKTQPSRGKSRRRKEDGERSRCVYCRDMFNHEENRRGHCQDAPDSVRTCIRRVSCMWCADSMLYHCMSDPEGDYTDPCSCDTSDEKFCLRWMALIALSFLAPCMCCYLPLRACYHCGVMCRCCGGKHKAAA
experimental details: phage ELISA signal ratio (GST-PRM binding over GST background); higher = stronger binding of peptide-phage to the PRM
experimental endpoint: phage ELISA signal ratio
Keep the answer to the number alone.

Please review the following examples before continuing.
PVQWGDWSYPYDLSGQ = 12.6
SAPPGYQTGLLMAEYR = 3.46
GYKLWETETSWWFVPA = 14
GAGELEWYPIWWDVTH = 17.3

// GIVPWWHDSGDHWGPL : phage ELISA signal ratio value = 19.4

// SSMWWTDTGDMYLRPE : phage ELISA signal ratio value = 4.88

// NLWPEVEPIMDNWQPS : phage ELISA signal ratio value = 6.67
